Value Type: melting point

| Compound | Reported Measurement |
| --- | --- |
| CN1C(=O)[C@@H](NC(=O)c2ccc(C(F)(F)F)cc2)N=C(c2ccccc2)c2ccccc21 | 125 to 127 °C |
| O=C(O)c1ccc(C=CC=CC(=O)c2ccccc2)cc1 | 210 to 214 °C |

Entry Cc1cc(C2=NOC(c3cc(Cl)cc(Cl)c3)(C(F)(F)F)C2)ccc1S(=O)(=O)NCc1ccccn1 (stereo not drawn) ; melting point = 57 to 58 °C

----------
Entries and their melting point values follow.

Please review the following examples before continuing.
| Compound | melting point |
| --- | --- |
| CCCC(C(=O)O)C1(c2ccccc2)CC(O)=C(Sc2ccccc2C(C)C)C(=O)O1 (configuration not stated) | 145 to 146 °C |
| CCOC(=O)COc1ccccc1Cc1ccc2ccccc2c1O | 124 to 125 °C |
| O=C1CSC(=S)N1c1ccc(Cl)c(Cl)c1 | 176 to 178 °C |
| CN(CCOc1ccc(OC(F)(F)F)cc1)CC1(C)Cn2cc([N+](=O)[O-])nc2O1 (configuration not stated) | 86.4 to 89.2 °C |
| CC(C)(C)c1cc(C(=O)NNC(N)=S)cc(C(C)(C)C)c1O | 210 to 211 °C |
| COc1c(Cl)ccc(-c2cc(N)c(Cl)c(C(=O)NOCc3ccoc3)n2)c1F | 160 to 162 °C |

Entry "CC(C)SC1=C(O)CC(C)(C)CC1=O" ; melting point = 74.5 to 79.5 °C

The measured values listed here are drawn from a melting point compilation (Tetko et al.; mined from patent text by program, amines drawn as free bases though some values may be those of a salt).
